Biological target: HLA-PEPTIDE target G8: HLA-A*02:01_…, recombinant soluble complex (human, enzymatically biotinylated (BirA) for screening and BLI)
Assay: phage display, scFv ELISA on pHLA against negative control pHLAs

{"columns": ["BINDER", "binding result"],
 "data": [
  ["scFv G8(1A03) (scFv, V domains shown) VH: QVQLVQSGAEVKKPGASVKVSCKASGGTFSRSAITWVRQAPGQGLEWMGWINPNSGATNYAQKFQGRVTMTRDTSTSTVYMELSSLRSEDTAVYYCARDDYGDYVAYFQHWGQGTLVTVSS VL: DIQMTQSPSSLSASVGDRVTITCRASQSITSYLNWYQQKPGKAPKLLIYDASNLETGVPSRFSGSGSGTDFTLTISSLQPEDFATYYCQQNYNSVTFGQGTKLEIK", "binds"],
  ["scFv G8(1A04) (scFv, V domains shown) VH: QVQLVQSGAEVKKPGASVKVSCKASGYPFIGQYLHWVRQAPGQGLEWMGIINPSGDSATYAQKFQGRVTMTRDTSTSTVYMELSSLRSEDTAVYYCARDLSYYYGMDVWGQGTTVTVSS VL: DIQMTQSPSSLSASVGDRVTITCWASQGISSYLAWYQQKPGKAPKLLIYAASSLQSGVPSRFSGSGSGTDFTLTISSLQPEDFATYYCQQSYNTPWTFGPGTKVDIK", "binds"],
  ["scFv G8(1H08) (scFv, V domains shown, also called G8-P1H08) VH: QVQLVQSGAEVKKPGASVKVSCKASGYTFGNYFMHWVRQAPGQGLEWMGMVNPSGGSETFAQKFQGRVTMTRDTSTSTVYMELSSLRSEDTAVYYCAASTWIQPFDYWGQGTLVTVSS VL: DIQMTQSPSSLSASVGDRVTITCRASQGINSYLAWYQQKPGKAPKLLIYDASNLETGVPSRFSGSGSGTDFTLTISSLQPEDFATYYCQQHNSYPPTFGQGTKLEIK", "binds"]
]}
